- ASSAYED SYSTEM: Cyclic GMP-AMP synthase (Homo sapiens)
- MEASUREMENT DESCRIPTION: Inhibition of CGAS in human THP1 cells transfected with interferon stimulatory DNA and measured after 16 hrs by Gaussia luciferase reporter gene assay
- Assay type: cell-based
ASSAY ENDPOINT: IC50

1. CN1C(=O)S/C(=C\c2cc3c(Cc4cnc(N)nc4)c[nH]c3c(F)c2Br)C1=O ... ≥ 10 µM
2. CCOc1cc(/C=C2\Sc3ncccc3C2=O)c(Br)cc1O ... 2.5 to 10 µM
3. CN1C(=O)S/C(=C\c2cc(OCc3cccnc3)c(O)c(F)c2Br)C1=O ... 2.5 to 10 µM
4. CN1C(=O)S/C(=C\c2cc(OCc3cccc4[nH]ccc34)c(O)cc2Br)C1=O ... 2.5 to 10 µM
5. CC(Oc1cc(/C=C2\SC(=O)N(C)C2=O)c(Br)c(F)c1O)c1cnc(N)nc1 (stereo not given) ... ≤ 2.5 µM

====

List of IC50 values.
- ASSAYED SYSTEM: Cyclic GMP-AMP synthase (Homo sapiens, UniProt Q8N884)
- Sequence (Q8N884 whole entry): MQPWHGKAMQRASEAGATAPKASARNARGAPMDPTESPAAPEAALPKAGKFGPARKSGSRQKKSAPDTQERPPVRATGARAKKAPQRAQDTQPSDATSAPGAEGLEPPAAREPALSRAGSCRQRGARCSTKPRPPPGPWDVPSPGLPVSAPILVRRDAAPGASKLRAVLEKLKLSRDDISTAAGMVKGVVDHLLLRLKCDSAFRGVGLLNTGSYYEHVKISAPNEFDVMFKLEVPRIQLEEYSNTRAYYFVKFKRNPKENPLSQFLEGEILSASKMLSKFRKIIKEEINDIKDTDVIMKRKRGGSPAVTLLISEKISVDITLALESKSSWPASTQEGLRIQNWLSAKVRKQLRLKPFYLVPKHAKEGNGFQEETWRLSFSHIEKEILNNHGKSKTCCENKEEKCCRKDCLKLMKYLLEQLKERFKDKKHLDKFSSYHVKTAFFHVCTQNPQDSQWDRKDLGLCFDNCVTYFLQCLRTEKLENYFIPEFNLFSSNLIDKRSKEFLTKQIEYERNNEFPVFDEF
- MEASUREMENT DESCRIPTION: Inhibition of CGAS in human THP1 cells transfected with interferon stimulatory DNA and measured after 16 hrs by Gaussia luciferase reporter gene assay
- Format: cell-based
ASSAY ENDPOINT: IC50

1) COc1cc(/C=C2\Sc3ncccc3C2=O)c(Br)c(F)c1O ... 2.5 to 10 µM
2) CN1C(=O)S/C(=C\c2cc(OCCc3cnc(N)nc3)c(O)c(F)c2Br)C1=O ... ≤ 2.5 µM
3) Cc1nc(N)ncc1COc1cc(/C=C2\SC(=O)N(C)C2=O)c(Br)c(F)c1O ... ≤ 2.5 µM
4) CN1C(=O)S/C(=C\c2cc(OCc3cnc(N)nc3)c(Oc3cnc(N)s3)cc2Br)C1=O ... 2.5 to 10 µM
5) CN1C(=O)S/C(=C\c2cc(OCCc3cnc(N)nc3)c(O)cc2Br)C1=O ... ≤ 2.5 µM
6) [2H]C([2H])(Oc1cc(/C=C2\SC(=O)N(C)C2=O)c(Br)cc1O)c1cnc(N)nc1 ... ≤ 2.5 µM
7) COc1cc(/C=C2\SC(=S)N(C)C2=O)c(Br)cc1O ... 2.5 to 10 µM
8) COc1cc(/C=C2\SC(=O)N(C)C2=O)c(Br)c(F)c1O ... 2.5 to 10 µM
9) COc1cc(/C=c2\sc3nccn3c2=O)c(Br)cc1O ... 2.5 to 10 µM
10) Nc1ncc(COc2cc(/C=C3\Sc4ncccc4C3=O)c(Br)c(F)c2O)cn1 ... ≤ 2.5 µM
11) Nc1ncc(COc2cc(/C=C3\Sc4ncccc4C3=O)c(Br)cc2O)cn1 ... ≤ 2.5 µM
12) CN1C(=O)S/C(=C\c2cc(OCc3cnc(NCCO)nc3)c(O)c(F)c2Br)C1=O ... ≤ 2.5 µM
13) CN1C(=O)S/C(=C\c2cc(OCc3cncnc3N)c(O)c(F)c2Br)C1=O ... ≥ 10 µM
14) O=C1/C(=C/c2cc(OCc3cnc(Cl)nc3)c(O)cc2Br)Sc2ncccc21 ... 2.5 to 10 µM
15) CC(Oc1cc(/C=C2\Sc3ncc(F)cc3C2=O)c(Br)c(F)c1O)c1cnc(N)nc1 (stereo unspecified) ... 2.5 to 10 µM
16) CC(Oc1cc(/C=C2\SC(=O)N(C)C2=O)c(Br)c(F)c1O)C(O)c1cnc(N)nc1 (stereo unspecified) ... ≥ 10 µM
17) CN1C(=O)S/C(=C\c2cc(OCc3cnc(Cl)nc3)c(O)c(F)c2Br)C1=O ... 2.5 to 10 µM
18) CN1C(=O)S/C(=C\c2cc(OC(F)(F)F)c(O)cc2Br)C1=O ... ≤ 2.5 µM
19) O=C1/C(=C/c2cc(OC(F)(F)F)c(O)cc2Br)Sc2ncccc21 ... 2.5 to 10 µM
20) CC(Oc1cc(/C=c2\sc3nccn3c2=O)c(Br)c(F)c1O)c1cnc(N)nc1 (stereo unspecified) ... ≥ 10 µM
21) CC(Oc1cc(/C=C2\Sc3ncccc3C2=O)c(Br)c(F)c1O)c1cnc(N)nc1 (stereo unspecified) ... 2.5 to 10 µM

====

- ASSAYED SYSTEM: Cyclic GMP-AMP synthase (Homo sapiens, UniProt Q8N884)
- MEASUREMENT DESCRIPTION: Inhibition of CGAS in human THP1 cells transfected with interferon stimulatory DNA and measured after 16 hrs by Gaussia luciferase reporter gene assay
- Format: cell-based
pIC50: −log10 of the molar value.
ASSAY ENDPOINT: pIC50

1) Cc1ncc(COc2cc(/C=C3\Sc4ncccc4C3=O)c(Br)cc2O)cn1 ... 5.00 to 5.60
2) CCC(Oc1cc(/C=C2\SC(=O)N(C)C2=O)c(Br)c(F)c1O)c1cnc(N)nc1 (stereo not drawn) ... 5.00 to 5.60
3) O=C1/C(=C/c2cc(OCc3cnc(NCc4ccccn4)nc3)c(O)c(F)c2Br)Sc2ncccc21 ... ≤ 5.00
4) CN1C(=O)S/C(=C\c2cc(OCc3cnc([S+](C)[O-])nc3N)c(O)c(F)c2Br)C1=O (stereo not drawn) ... ≤ 5.00
5) C[S+]([O-])c1ncc(COc2cc(/C=C3\Sc4ncccc4C3=O)c(Br)c(F)c2O)cn1 (stereo not drawn) ... 5.00 to 5.60
6) CC(Oc1cc(/C=C2\SC(=O)N(C)C2=O)c(Br)cc1O)c1cncnc1N (stereo not drawn) ... 5.00 to 5.60
7) CN1C(=O)S/C(=C\c2cc(OCc3cncnc3)c(O)c(F)c2Br)C1=O ... 5.00 to 5.60
8) CN1C(=O)S/C(=C\c2cc(OCc3cnc([S+](C)[O-])nc3)c(O)cc2Br)C1=O (stereo not drawn) ... 5.00 to 5.60
9) CNc1ncc(COc2cc(/C=C3\Sc4ncccc4C3=O)c(Br)cc2O)cn1 ... 5.00 to 5.60
10) O=C1/C(=C/c2cc(OCc3cccnc3)c(O)cc2Br)Sc2ncccc21 ... 5.00 to 5.60
11) CN1C(=O)S/C(=C\c2cc(OCc3cnc4ccccc4c3)c(O)cc2Br)C1=O ... 5.00 to 5.60
12) CN1C(=O)S/C(=C\c2cc(OCc3cncnc3)c(O)cc2Br)C1=O ... ≥ 5.60
13) CC(C)n1ccc(COc2cc(/C=C3\SC(=O)N(C)C3=O)c(Br)cc2O)cc1=O ... 5.00 to 5.60
14) O=C1/C(=C/c2cc(OCc3cnc(NCc4ccncc4)nc3)c(O)cc2Br)Sc2ncccc21 ... ≥ 5.60
15) CC(Oc1cc(/C=C2\SC(=O)N(C)C2=O)c(Br)c(F)c1O)c1cncnc1N (stereo not drawn) ... ≤ 5.00
16) CN1C(=O)S/C(=C\c2cc(OCc3cnc(Cl)nc3)c(O)cc2Br)C1=O ... 5.00 to 5.60
17) COc1cc(/C=C2\Sc3ccccc3C2=O)c(Br)cc1O ... ≥ 5.60
18) CN1C(=O)S/C(=C\c2cc(OCc3ccncc3)c(O)cc2Br)C1=O ... ≥ 5.60
19) Cc1ncc(COc2cc(/C=C3\SC(=O)C(C)C3=O)c(Br)c(F)c2O)c(N)n1 (stereo not drawn) ... 5.00 to 5.60
20) CN1C(=O)S/C(=C\c2cc(OCc3ccc(N)nc3)c(O)cc2Br)C1=O ... 5.00 to 5.60
21) CN1C(=O)S/C(=C\c2cc(OCc3cn(-c4ccncc4)nn3)c(O)cc2Br)C1=O ... 5.00 to 5.60
22) CN1C(=O)S/C(=C\c2cc(OCC3CCCCC3)c(O)cc2Br)C1=O ... 5.00 to 5.60
23) CN1C(=O)S/C(=C\c2cc(OCc3cnc[nH]3)c(O)cc2Br)C1=O ... 5.00 to 5.60
24) Nc1ncc(COc2cc(/C=C3\Sc4ncccc4C3=O)c(Br)cc2O)c(C2CC2)n1 ... 5.00 to 5.60
25) CN1C(=O)S/C(=C\c2cc(OCc3ncc(N)cn3)c(O)cc2Br)C1=O ... 5.00 to 5.60
26) CN1C(=O)S/C(=C\c2cc(OCc3cnc(N)nc3C3CC3)c(O)cc2Br)C1=O ... 5.00 to 5.60
27) CN1C(=O)S/C(=C\c2cc(OCc3cnc(N)nc3)c(O)c(F)c2Br)C1=O ... ≥ 5.60
28) O=C1/C(=C/c2cc(CC(F)(F)F)c(O)cc2Br)Sc2ncccc21 ... 5.00 to 5.60
29) CN1C(=O)S/C(=C\c2cc(OCc3cnc(N4CCNCC4)nc3)c(O)cc2Br)C1=O ... 5.00 to 5.60
30) Nc1ncc(COc2cc(/C=c3\sc4nccn4c3=O)c(Br)cc2O)cn1 ... ≥ 5.60
31) Cc1ncc(COc2cc(/C=C3\Sc4ncccc4C3=O)c(Br)c(F)c2O)cn1 ... ≥ 5.60
32) COCCNc1ncc(COc2cc(/C=C3\SC(=O)N(C)C3=O)c(Br)c(F)c2O)cn1 ... 5.00 to 5.60
33) CN1C(=O)S/C(=C\c2cc(OCc3cncnc3N)c(O)cc2Br)C1=O ... ≥ 5.60
34) CN1C(=O)S/C(=C\c2cc(OCc3cnc(N)nc3)c(O)cc2Br)C1=O ... ≥ 5.60
35) CNc1ncc(COc2cc(/C=C3\Sc4ncccc4C3=O)c(Br)c(F)c2O)cn1 ... 5.00 to 5.60
36) CN1C(=O)S/C(=C\c2cc(O/C=C/c3cnc(N)nc3)c(O)c(F)c2Br)C1=O ... ≥ 5.60
37) CN1C(=O)S/C(=C\c2cc(O)c(O)cc2Br)C1=O ... 5.00 to 5.60
38) CN1C(=O)S/C(=C\c2cc(OCc3cccnc3)c(O)cc2Br)C1=O ... 5.00 to 5.60
39) CN1C(=O)S/C(=C\c2cc3c(-c4cnc(N)nc4)c[nH]c3c(F)c2Br)C1=O ... 5.00 to 5.60
40) CCOc1cc(/C=C2\SC(=O)N(C)C2=O)c(Br)cc1O ... ≥ 5.60
41) CN1C(=O)S/C(=C\c2cc(OCc3cnc(NCc4cccnc4)nc3)c(O)cc2Br)C1=O ... 5.00 to 5.60
42) O=C1/C(=C/c2cc(OCc3cnc(NCCO)nc3)c(O)cc2Br)Sc2ncccc21 ... ≥ 5.60
43) COc1cc(/C=C2\SC(=O)N(C)C2=O)c(Br)cc1O ... ≥ 5.60

Source of measurements: ChEMBL document CHEMBL4418308
